Please respond with reported IC50 for every item in the list.
- ASSAY SYSTEM: human DNA polymerase β (Homo sapiens, UniProt P06746)
- Construct: Recombinant full-length human DNA polymerase λ and β were generated and purified as described
- TEST DESCRIPTION: Polymerase assay, DNA polymerase β
- CONDITION DETAILS: enzymatic assay; read-out: ID50 pol β
- Experimental: Recombinant full-length human DNA polymerase λ and β were generated and purified as described. […] Polymerase Assay: Activity of DNA polymerase λ and β were assessed using poly(dA)/oligo(dT)10:1 substrate in a final volume of 25 μL containing 50 mM Tris-HCl (pH 7.0), 0.25 mg/mL BSA, 1 mM, DTT, 0.2 μM poly(dA)/oligo(dT)10:1 (3′-OH ends), 50 nM DNA polymerase λ or β, 5 μM [3H]-2′-deoxythymidine 5′-triphosphate (dTTP) (5 Ci/mmol), and 0.5 mM MnCl2 or 5 mM MgCl2 used as cofactors. […]
State the answer as a number, implicitly in µM.

Query :: Reported IC50 for COc1ccc(Cn2cc(C(=O)c3ccccc3)cc2/C=C/C(=O)/C=C(\O)C(=O)O)cc1 : what is it?
Result :: 14.7

Query :: Reported IC50 for CCOC(=O)/C(O)=C/C(=O)/C=C/c1cc(C(=O)c2ccccc2)cn1Cc1ccc(OC)cc1 : what is it?
Result :: 7.94

Query :: Reported IC50 for O=C(/C=C(\O)C(=O)O)/C=C/c1cc(C(=O)c2ccccc2)cn1Cc1ccc(Cl)cc1 : what is it?
Result :: 20

Query :: Reported IC50 for CCOC(=O)/C(O)=C/C(=O)/C=C/c1cc(C(=O)c2ccccc2)cn1Cc1ccc(Cl)cc1 : what is it?
Result :: 12.4

====

Please respond with reported IC50 for every item in the list.
- ASSAY SYSTEM: human TdT (Homo sapiens, UniProt P04053)
- Construct: purchased Trevigen (Gaithersburg, MD)
- Sequence (P04053 whole entry): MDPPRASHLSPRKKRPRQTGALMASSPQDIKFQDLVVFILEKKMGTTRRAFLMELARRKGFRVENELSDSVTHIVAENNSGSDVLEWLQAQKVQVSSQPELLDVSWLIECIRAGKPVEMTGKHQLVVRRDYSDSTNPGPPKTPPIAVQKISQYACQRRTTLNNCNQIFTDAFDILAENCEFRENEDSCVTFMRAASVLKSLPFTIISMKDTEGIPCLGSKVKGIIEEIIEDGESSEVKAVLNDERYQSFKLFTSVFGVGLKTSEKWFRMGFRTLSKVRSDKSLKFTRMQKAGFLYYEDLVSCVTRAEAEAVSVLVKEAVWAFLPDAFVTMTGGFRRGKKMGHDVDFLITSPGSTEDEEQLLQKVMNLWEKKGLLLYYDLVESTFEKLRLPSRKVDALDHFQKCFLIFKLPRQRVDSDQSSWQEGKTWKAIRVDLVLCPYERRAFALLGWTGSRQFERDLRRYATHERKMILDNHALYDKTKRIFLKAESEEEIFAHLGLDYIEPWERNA
- TEST DESCRIPTION: Terminal transferase assay, TdT
- Format: biochemical
- CONDITION DETAILS: human TdT, Mg2+ as cofactor; read-out: ID50 (µM) Mg2+
State the answer as a number, implicitly in µM.

Query :: Reported IC50 for O=C(/C=C(\O)C(=O)O)/C=C/c1cc(C(=O)c2ccc(OCc3ccc4ccccc4c3)cc2)cn1Cc1ccc(F)cc1 : what is it?
Result :: 12.8

Query :: Reported IC50 for CCOC(=O)/C(O)=C/C(=O)/C=C/c1cc(C(=O)c2ccccc2)cn1S(=O)(=O)c1ccc(F)cc1 : what is it?
Result :: 3.87

Query :: Reported IC50 for CCOC(=O)/C(O)=C/C(=O)/C=C/c1cc(C(=O)c2ccccc2)cn1Cc1ccc(OC)cc1 : what is it?
Result :: 10.5

Query :: Reported IC50 for CCOC(=O)/C(O)=C/C(=O)/C=C/c1cc(C(=O)c2ccc(NC(=O)c3ccc(OC)c(Br)c3)cc2)cn1Cc1ccc(F)cc1 : what is it?
Result :: 0.91

Query :: Reported IC50 for CCOC(=O)/C(O)=C/C(=O)/C=C/c1c[nH]cc1-c1cc(OC)c(OC)c(OC)c1 : what is it?
Result :: 21.3

====

- ASSAY SYSTEM: human TdT (Homo sapiens, UniProt P04053)
- Construct: purchased Trevigen (Gaithersburg, MD)
- TEST DESCRIPTION: Terminal transferase assay, TdT
- Type: biochemical
- CONDITION DETAILS: human TdT, Mn2+ as cofactor; read-out: ID50 (µM) Mn2+
PROPERTY MEASURED: IC50

Query :: Reported IC50 for CCOC(=O)/C(O)=C/C(=O)/C=C/c1cc(C(=O)c2ccccc2)c[nH]1 : what is it?
Result :: > 50 µM

Query :: Reported IC50 for O=C(/C=C(\O)C(=O)O)/C=C/c1cc(C(=O)c2ccccc2)c[nH]1 : what is it?
Result :: 0.3 µM

Query :: Reported IC50 for COc1cc(-c2c[nH]cc2/C=C/C(=O)/C=C(\O)C(=O)O)cc(OC)c1OC : what is it?
Result :: 0.23 µM

Query :: Reported IC50 for CCOC(=O)/C(O)=C/C(=O)/C=C/c1cc(C(=O)c2ccc(OCc3ccc4ccccc4c3)cc2)cn1Cc1ccc(F)cc1 : what is it?
Result :: > 50 µM

Query :: Reported IC50 for O=C(/C=C(\O)C(=O)O)/C=C/c1c[nH]cc1-c1ccccc1 : what is it?
Result :: 0.19 µM

Query :: Reported IC50 for CCOC(=O)/C(O)=C/C(=O)/C=C/c1cccn1Cc1ccc(F)cc1 : what is it?
Result :: > 50 µM

Query :: Reported IC50 for CCOC(=O)/C(O)=C/C(=O)/C=C/c1ccn(Cc2ccc(F)cc2)c1 : what is it?
Result :: > 50 µM

Query :: Reported IC50 for CCOC(=O)/C(O)=C/C(=O)/C=C/c1cn(Cc2ccc(F)cc2)cc1-c1ccccc1 : what is it?
Result :: 2.72 µM

Query :: Reported IC50 for CCOC(=O)/C(O)=C/C(=O)/C=C/c1cc(C(=O)c2ccccc2)cn1Cc1cccc2ccccc12 : what is it?
Result :: > 50 µM

Query :: Reported IC50 for COc1ccc(Cn2cc(C(=O)c3ccccc3)cc2/C=C/C(=O)/C=C(\O)C(=O)O)cc1 : what is it?
Result :: > 50 µM

Query :: Reported IC50 for CCOC(=O)/C(O)=C/C(=O)c1cccn1Cc1ccc(F)cc1 : what is it?
Result :: > 50 µM

Query :: Reported IC50 for CCOC(=O)/C(O)=C/C(=O)/C=C/c1c[nH]cc1-c1ccccc1 : what is it?
Result :: > 50 µM

Query :: Reported IC50 for CCOC(=O)/C(O)=C/C(=O)/C=C/c1c[nH]cc1-c1cc(OC)c(OC)c(OC)c1 : what is it?
Result :: > 50 µM
